Experiment: Oral bioavailability in Sprague-Dawley rat at 5 mg/kg administered via gavage measured upto 24 hrs by LC/MS/MS analysis
Assay type: ADME, organism-based
Details: in vivo
result.type: bioavailability (%)
One number for each entry, in %.

get_value(item= Cc1cnc(Nc2ccc3c(c2)CCN(C(=O)/C=C/CN(C)C)C3)nc1-c1cnn(C(C)C)c1 , readout=bioavailability) returns 25.7

* * *

Assign Ratio IC50 to each entry below.
Test: Selectivity index, ratio of IC50 for inhibition of human JAK1 (866 to end residues) to IC50 for inhibition of recombinant human JAK2 (808 to end residues)
Give bare numbers.

Here are 5 compounds together with their reported answers.
Cc1cnc(Nc2ccc3c(c2)CCN(C(=O)/C=C/C(=O)c2ccccc2)C3)nc1-c1cnn(C(C)C)c1 | 4.7
Cc1cnc(Nc2ccc3c(c2)CN(C(=O)/C=C/CN(C)C)CC3)nc1-c1cnn(C(C)C)c1 | 10
Cc1cnc(Nc2ccc3c(c2)CCN(C(=O)/C=C/CN(C)C)C3)nc1-c1cnn(C(C)C)c1 | 14
Cc1cnc(Nc2ccc3c(c2)CCN(CC#N)C3)nc1-c1cnn(C(C)C)c1 | 6.1
Cc1ccc(C(=O)/C=C/C(=O)N2CCc3cc(Nc4ncc(C)c(-c5cnn(C(C)C)c5)n4)ccc3C2)cc1 | 20

Answer for every listed entry: what is its Ratio IC50? The entries follow.
1. Cc1cnc(Nc2ccc3c(c2)CN(C(=O)/C=C/C(=O)c2ccccc2)CC3)nc1-c1cnn(C(C)C)c1
2. COC(=O)/C=C/CN1CCc2cc(Nc3ncc(C)c(-c4cnn(C(C)C)c4)n3)ccc2C1

1. 15
2. 13

* * *

Species on record: Homo sapiens
Test: Selectivity index, ratio of IC50 for inhibition of FLT3 ITD mutant in human MOLM13 cells to IC50 for inhibition of JAK2 V617F mutant in human SET-2 cells
Type: cell-based
result.type: Ratio IC50
Numbers only.

The cases that follow already have their Ratio IC50 on record.
COC(=O)/C=C/CN1CCc2cc(Nc3ncc(C)c(-c4cnn(C(C)C)c4)n3)ccc2C1 | 36.3
CCNC(=O)N1CCc2cc(Nc3ncc(C)c(-c4cnn(C(C)C)c4)n3)ccc2C1 | 0.45
CC(C)n1cc(-c2nc(Nc3ccc4c(c3)CCN(CCCCO)C4)ncc2F)cn1 | 0.75
Cc1cnc(Nc2ccc3c(c2)CCN(CC#N)C3)nc1-c1cnn(C(C)C)c1 | 8.8
COC(=O)/C=C/CN1CCc2ccc(Nc3ncc(C)c(-c4cnn(C(C)C)c4)n3)cc2C1 | 6
CC#CCN1CCc2cc(Nc3ncc(C)c(-c4cnn(C(C)C)c4)n3)ccc2C1 | 2

Batch: Ratio IC50 for all items listed.
1. Cc1cnc(Nc2ccc3c(c2)CCN(CCCCO)C3)nc1-c1cnn(C(C)C)c1
2. Cc1cnc(Nc2ccc3c(c2)CCN(CCCO)C3)nc1-c1cnn(C(C)C)c1
3. CC(C)n1cc(-c2nc(Nc3ccc4c(c3)CCN(CCCO)C4)ncc2F)cn1
4. Cc1cnc(Nc2ccc3c(c2)CN(CC#N)CC3)nc1-c1cnn(C(C)C)c1

[3.3, 3.4, 1.4, 4.5]

* * *

Observed IC50 values for Tyrosine-protein kinase JAK1 (Homo sapiens, UniProt P23458) are listed in what follows.
Give bare numbers, in µM.

Cc1cnc(Nc2ccc3c(c2)CCN(C(=O)/C=C/CN(C)C)C3)nc1-c1cnn(C(C)C)c1 | 0.042
Cc1ccc(C(=O)/C=C/C(=O)N2CCc3cc(Nc4ncc(C)c(-c5cnn(C(C)C)c5)n4)ccc3C2)cc1 | 0.06
Cc1cnc(Nc2ccc3c(c2)CCN(C(=O)/C=C/C(=O)c2ccccc2)C3)nc1-c1cnn(C(C)C)c1 | 0.047

Could you now look at the following compound, please?
Input Cc1cnc(Nc2ccc3c(c2)CN(C(=O)/C=C/CN(C)C)CC3)nc1-c1cnn(C(C)C)c1 . Output IC50: 0.091
